Measured On: UniProt P08581
Sequence (P08581 whole entry): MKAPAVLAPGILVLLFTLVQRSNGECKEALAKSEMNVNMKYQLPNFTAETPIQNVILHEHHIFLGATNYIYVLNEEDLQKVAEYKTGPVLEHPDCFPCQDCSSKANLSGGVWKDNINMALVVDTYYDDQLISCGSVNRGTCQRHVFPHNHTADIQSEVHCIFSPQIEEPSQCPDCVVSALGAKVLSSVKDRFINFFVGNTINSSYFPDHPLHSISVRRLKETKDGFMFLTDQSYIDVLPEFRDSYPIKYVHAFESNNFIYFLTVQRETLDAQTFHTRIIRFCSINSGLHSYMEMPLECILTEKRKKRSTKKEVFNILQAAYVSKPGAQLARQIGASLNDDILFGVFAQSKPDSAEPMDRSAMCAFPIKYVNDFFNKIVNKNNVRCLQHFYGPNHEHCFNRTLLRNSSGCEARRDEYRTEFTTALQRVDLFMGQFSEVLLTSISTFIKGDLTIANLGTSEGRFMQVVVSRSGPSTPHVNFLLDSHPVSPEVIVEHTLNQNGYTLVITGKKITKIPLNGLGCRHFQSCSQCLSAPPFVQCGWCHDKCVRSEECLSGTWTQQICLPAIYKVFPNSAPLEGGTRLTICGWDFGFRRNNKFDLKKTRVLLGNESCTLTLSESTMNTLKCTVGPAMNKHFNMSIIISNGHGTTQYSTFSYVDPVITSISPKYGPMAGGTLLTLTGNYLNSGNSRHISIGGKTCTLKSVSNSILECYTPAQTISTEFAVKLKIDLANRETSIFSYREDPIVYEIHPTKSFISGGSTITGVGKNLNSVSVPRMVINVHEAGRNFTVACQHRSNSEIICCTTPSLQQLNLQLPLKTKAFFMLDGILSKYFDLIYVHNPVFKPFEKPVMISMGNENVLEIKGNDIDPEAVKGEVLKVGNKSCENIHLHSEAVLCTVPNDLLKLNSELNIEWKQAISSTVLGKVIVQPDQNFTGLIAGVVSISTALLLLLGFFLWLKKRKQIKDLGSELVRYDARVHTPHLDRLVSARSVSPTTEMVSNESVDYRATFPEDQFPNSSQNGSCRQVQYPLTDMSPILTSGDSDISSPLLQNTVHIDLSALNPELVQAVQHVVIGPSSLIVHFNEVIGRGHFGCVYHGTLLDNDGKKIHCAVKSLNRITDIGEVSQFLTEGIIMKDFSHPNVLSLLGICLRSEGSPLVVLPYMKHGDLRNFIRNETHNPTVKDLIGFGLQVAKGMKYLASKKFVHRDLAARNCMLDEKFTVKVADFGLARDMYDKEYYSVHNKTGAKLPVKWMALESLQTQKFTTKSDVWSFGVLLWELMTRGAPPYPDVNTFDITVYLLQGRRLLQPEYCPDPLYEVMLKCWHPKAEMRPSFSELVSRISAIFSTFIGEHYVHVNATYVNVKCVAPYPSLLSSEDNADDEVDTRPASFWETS
Parameter Measured: IC50

input: Please provide the recorded IC50 for O=C1Nc2ccc(C(=O)N3CCCCC3)cc2/C1=C1/Nc2ccccc2/C1=N\O , tested on UniProt P08581.
output: > 10 µM
